Data origin: PubChem BioAssay AID248

system: L1210 leukemia ip in BDF1 mice, survival T/C; assay: NCI In Vivo Anticancer Drug Screen. Data for tumor model L1210 Leukemia (intraperitoneal) in B6D2F1 (BDF1) mice; details: endpoint: mean survival time; dose: 200.0 mg/kg/injection; schedule: Q04DX002 (ip); vehicle: Klucel (hydroxypropylcellulose) (HPC); higher = longer survival
Toxic doses and inconclusive results are not listed.
quantity: T/C

CCCCCCCC(=O)N1CCCCC1C (stereo unspecified)	103 % of control
Nc1ccc(C(=O)N/N=C/c2ccc(Cl)cc2Cl)cc1	93 % of control
CCN(CC)C(=S)N1CCCCC1	90 % of control
CP1CCC(O)(c2ccccc2)CC1 (stereo unspecified)	103 % of control
N/N=C(/CC1C(=O)Nc2ccccc21)c1ccccc1 (stereo unspecified)	108 % of control

Turning now to a further compound:
Exercise: Could you share which T/C value was measured for CC1(c2cccc(Cl)c2)NC(=O)NC1=O (stereo unspecified) ?
Key: 105 % of control

* * *

tested on: L1210 leukemia ip in BDF1 mice, survival T/C; assay: NCI In Vivo Anticancer Drug Screen. Data for tumor model L1210 Leukemia (intraperitoneal) in B6D2F1 (BDF1) mice; conditions: endpoint: mean survival time; dose: 100.0 mg/kg/injection; schedule: Q01DX001 (ip); vehicle: saline; higher = longer survival
Toxic doses and inconclusive results are not listed.
Item-by-item account of T/C

[O-][n+]1c2ccccc2nn1-c1ccccc1	95 % of control
O=C/C=C/c1cc(Cl)ccc1O	108 % of control
c1ccc(CCN2CCC(CCc3c[nH]c4ccccc34)CC2)cc1	117 % of control

Consider now this further compound.
Exercise: Looking for the measured T/C of Nc1c2c([nH]c(=O)c1N=O)CCC2 , can you help?
Key: 93 % of control

* * *

Known T/C of a selection of molecules
tested on: L1210 leukemia ip in BDF1 mice, survival T/C; experiment: NCI In Vivo Anticancer Drug Screen. Data for tumor model L1210 Leukemia (intraperitoneal) in B6D2F1 (BDF1) mice; settings: endpoint: mean survival time; dose: 200.0 mg/kg/injection; schedule: Q01DX001 (ip); vehicle: other; higher = longer survival
Toxic doses and inconclusive results are not listed.

Field: example entries. Status: answers known.
Cc1ccc(S(=O)(=O)NC(CC(C)C)C(=O)O)cc1 (stereo not drawn)	96 % of control
NNC(=O)c1ccccc1O	97 % of control

Now, please, on to the next molecule.
Exercise: Given the molecule OCC(O)C(O)C(O)C(Sc1ccccc1)Sc1ccccc1 (stereo not drawn) , what is its reported T/C?
Key: 101 % of control

* * *

# T/C annotations
system: L1210 leukemia ip in BDF1 mice, survival T/C; assay: NCI In Vivo Anticancer Drug Screen. Data for tumor model L1210 Leukemia (intraperitoneal) in B6D2F1 (BDF1) mice; settings: endpoint: mean survival time; dose: 150.0 mg/kg/injection; schedule: Q01DX001 (ip); vehicle: saline; higher = longer survival
Inconclusive results and toxic doses are left out.

COc1cc(N(CCCl)CCCl)c(OC)cc1/C=N/NC(=O)CC(N)C(=O)O (stereo not given)	123 % of control

Exercise: Looking for the measured T/C of CCOC(=O)N(CCC(=O)OC(C)(C)C)CC(=O)OC(C)(C)C , can you help?
Key: 95 % of control

* * *

system: L1210 leukemia ip in BDF1 mice, survival T/C; assay: NCI In Vivo Anticancer Drug Screen. Data for tumor model L1210 Leukemia (intraperitoneal) in B6D2F1 (BDF1) mice; conditions: endpoint: mean survival time; dose: 200.0 mg/kg/injection; schedule: Q01DX001 (ip); vehicle: saline; higher = longer survival
Inconclusive results and toxic doses are left out.
quantity: T/C

Clc1ccc(SCN(CSc2ccc(Cl)cc2)Cc2ccccc2)cc1	90 % of control
O=C(Nc1ncn[nH]1)C(F)(F)F	103 % of control

Exercise: Looking for the measured T/C of CONP(=O)(NOC)c1ccccc1 , can you help?
Key: 95 % of control

Exercise: Record: CC1([N+](=O)[O-])COP(=O)(Nc2ccc(Br)cc2)OC1 (configuration not stated)
Key: 104 % of control

Exercise: Repeat for the following molecule: CCCCC(=O)N/N=C/c1ccc(Cl)c([N+](=O)[O-])c1
Key: 89 % of control

Exercise: // same read-out, input: C#CC1=CCCC1
Key: 100 % of control

Exercise: Next entry: O=S1(=O)CCc2ccccc21
Key: 111 % of control
